biological target: human FcRn (probe in the FACS analysis of bacterially displayed Fc variants) (human, UniProt P55899 24-297; P61769 21-119, limits assumed); assay: FACS of bacterially displayed Fc variants with human FcRn, pH 6.0
Sequence (P55899 24-297 limits assumed, change not shown, chain 1 of 2): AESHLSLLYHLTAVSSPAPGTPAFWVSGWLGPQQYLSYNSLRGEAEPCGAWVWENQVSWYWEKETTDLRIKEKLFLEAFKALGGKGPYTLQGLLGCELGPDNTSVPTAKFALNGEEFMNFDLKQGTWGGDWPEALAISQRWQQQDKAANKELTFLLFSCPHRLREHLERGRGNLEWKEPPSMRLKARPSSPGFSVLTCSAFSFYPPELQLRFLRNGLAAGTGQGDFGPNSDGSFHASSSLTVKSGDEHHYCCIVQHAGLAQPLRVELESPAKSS
Sequence (P61769 21-119 limits assumed, change not shown, chain 2 of 2): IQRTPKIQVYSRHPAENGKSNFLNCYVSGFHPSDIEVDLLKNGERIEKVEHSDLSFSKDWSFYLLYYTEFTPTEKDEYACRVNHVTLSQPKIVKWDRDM
READOUT: binding result

Fc variant L309G/Q311H/M428L (bacterial display) (other, also called Q311H in M428L and L309G Fc variant) DKTHTCPPCPAPELLGGPSVFLFPPKPKDTLMISRTPEVTCVVVDVSHEDPEVKFNWYVDGVEVHNAKTKPREEQYNSTYRVVSVLTVGHHDWLNGKEYKCKVSNKALPAPIEKTISKAKGQPREPQVYTLPPSRDELTKNQVSLTCLVKGFYPSDIAVEWESNGQPENNYKTTPPVLDSDGSFFLYSKLTVDKSRWQQGNVFSCSVLHEALHNHYTQKSLSLSPGK
binds
Fc variant L309G/Q311L/M428L (bacterial display) (other, also called Q311L in M428L and L309G Fc variant) DKTHTCPPCPAPELLGGPSVFLFPPKPKDTLMISRTPEVTCVVVDVSHEDPEVKFNWYVDGVEVHNAKTKPREEQYNSTYRVVSVLTVGHLDWLNGKEYKCKVSNKALPAPIEKTISKAKGQPREPQVYTLPPSRDELTKNQVSLTCLVKGFYPSDIAVEWESNGQPENNYKTTPPVLDSDGSFFLYSKLTVDKSRWQQGNVFSCSVLHEALHNHYTQKSLSLSPGK
binds
Fc variant L309G/Q311V/M428L (bacterial display) (other, also called Q311V in M428L and L309G Fc variant) DKTHTCPPCPAPELLGGPSVFLFPPKPKDTLMISRTPEVTCVVVDVSHEDPEVKFNWYVDGVEVHNAKTKPREEQYNSTYRVVSVLTVGHVDWLNGKEYKCKVSNKALPAPIEKTISKAKGQPREPQVYTLPPSRDELTKNQVSLTCLVKGFYPSDIAVEWESNGQPENNYKTTPPVLDSDGSFFLYSKLTVDKSRWQQGNVFSCSVLHEALHNHYTQKSLSLSPGK
binds
